Tested on: NCI-H460
protocolNotes: NCI tumour cell line growth inhibition, 48 h
The source made the active and inactive calls. Rule as the data show it: active = GI50 up to about 1.1 µM and inactive = higher.
Respond only with the outcome that fits, drawn from Yes for active, No for inactive

Check out these entries, answers already filled in.
O=C1CSC(=S)N1c1ccc(F)cc1F
No
CC(=O)OCCC[C@@H]1C(=C(C)C)CCC2[C@@]1(C)CC[C@@]1(C)C[C@](C)(CCC=C(C)C)CC[C@]21C (stereo partly drawn)
No
CC(C)(C)OC(=O)N(O)CCCn1cnc2c(NC3CC3)ncnc21
No

(Q) Returns: the outcome recorded for O=C(CCCCCCCCC(=O)N1C(=O)CC(=O)N(c2cccc(Cl)c2)C1=S)N1C(=O)CC(=O)N(c2cccc(Cl)c2)C1=S in this assay.
(A) No

(Q) What classification did Nc1ncnc2c1nc(O)n2-c1ccccc1 end up with in this test?
(A) No

(Q) Could you kindly confirm the outcome this assay logged for Clc1ccc(-c2c(C3=NCCN3)nnn2-c2ccccc2)cc1 ?
(A) No

(Q) Look up the recorded call for CC(=O)NN/C=N/C(C#N)=C(\N)C#N in this test.
(A) No

(Q) // return assay outcome for O=Cc1cn(S(=O)(=O)c2ccccc2)c2ccccc12
(A) No

(Q) Short answer needed: outcome of this test for Cc1ccc(NC(=O)C(=O)C(C(=O)c2ccc3ccccc3c2)C2OC(=O)c3ccccc32)c(C)c1 (stereo not drawn) ?
(A) No

Origin of measurements: ChEMBL document CHEMBL1201862
